- experimental-target: acid ceramidase (hACR) (Homo sapiens)
- Construct: expressed in transfected cells; cell lysate used
- measurement-protocol: Acid ceramidase inhibition, biochemical fluorescent assay with cell lysates overexpressing acid ceramidase, substrate Rbm14-12
- conditions: cell lysates overexpressing acid ceramidase; 1 hr preincubation at RT; pH 4.5; substrate Rbm14-12 6.3 μM; read-out: hACR IC50
pIC50: −log10 of the molar value.
readout-kind: pIC50

Reference set (4 entries):
CC1(C)CCCCN1C(=O)NCCc1ccccc1 [Example 25] = 6.00 to 6.70
CC1CCC(N2CCCCC2)CN1C(=O)NCCCCc1ccccc1 (centres unmarked) [Example 100] = 6.00 to 6.70
C=CCCCCNC(=O)N1CCC2(CCCCO2)CC1(C)C (centres unmarked) [Example 44] = 6.00 to 6.70
CCCCCNC(=O)N1C(c2ccc(F)c(OC)c2)COCC1(C)C (centres unmarked) [Example 163] = > 6.70

Here's the next entry for you.
Sure, the documented pIC50 for CC1(C)CN(c2cncnc2)CCN1C(=O)NCCCCc1ccccc1 [Example 105] is < 6.00

----------
- measurement-protocol: Compound solubility in water
- Type: physicochemical
readout-kind: log10 solubility (log10 of the value in µM)
Parameter value (number): base-10 log of solubility in µM.

Worked set:
CCCCNC(=O)N1CCN(C)CC1(C)C [Example 37] = 1.28
CN1CCN(c2cccc3c2CCC(C)(C)N3C(=O)NCCc2ccccc2)CC1 [Example 29] = 1.50
CN1CCN(C2CCN(C(=O)NCCc3ccccc3)C(C)(C)C2)CC1 (stereo not shown) [Example 26] = 1.64
CC1(C)CC(=O)c2ccccc2N1C(=O)NCCc1ccccc1 [Example 28] = 0.49
O=C(NCCCc1ccccc1)N1CCCCC12CCCC2 [Example 56] = 0.69

For CC1(C)CC(c2ccccc2)CCN1C(=O)NCCCCc1ccccc1 (stereo not shown) [Example 74] the molecule record lists log10 solubility as -0.70

Looking up CC1(C)CC(c2ccccc2)CCN1C(=O)NCCOCc1ccccc1 (stereo not shown) [Example 75] , I found its log10 solubility recorded as 0.85

In plain terms, CCCCCNC(=O)N1C(C)COCC1(C)C (stereo not shown) [Example 132] has a documented log10 solubility of 1.95

Reported log10 solubility of CN1CCC(c2ccc3c(c2)N(C(=O)NCCc2ccccc2)CCC3)CC1 [Example 3] : 1.59

response.value for CC1(C)CCc2c(C3COC3)cccc2N1C(=O)NCCc1ccccc1 [Example 51] (field: log10 solubility) = -0.05

----------
- experimental-target: acid ceramidase (hACR) (Homo sapiens)
- Construct: expressed in transfected cells; cell lysate used
- Sequence (Q13510 143-395 limits assumed): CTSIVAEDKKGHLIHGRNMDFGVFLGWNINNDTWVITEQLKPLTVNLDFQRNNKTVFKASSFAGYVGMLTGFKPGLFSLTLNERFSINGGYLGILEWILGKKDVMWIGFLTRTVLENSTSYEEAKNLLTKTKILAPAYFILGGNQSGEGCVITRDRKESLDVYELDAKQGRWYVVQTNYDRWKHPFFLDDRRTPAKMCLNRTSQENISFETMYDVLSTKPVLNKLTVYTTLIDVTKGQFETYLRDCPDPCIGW
- Sequence (Q13510 22-142 limits assumed): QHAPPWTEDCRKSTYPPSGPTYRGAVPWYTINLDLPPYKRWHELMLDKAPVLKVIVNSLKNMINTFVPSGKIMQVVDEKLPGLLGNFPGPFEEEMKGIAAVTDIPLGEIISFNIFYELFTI
- measurement-protocol: Acid ceramidase inhibition, biochemical fluorescent assay with cell lysates overexpressing acid ceramidase, substrate Rbm14-12
- conditions: cell lysates overexpressing acid ceramidase; 1 hr preincubation at RT; pH 4.5; substrate Rbm14-12 6.3 μM; read-out: hACR IC50
Structures can show the parent of a compound that is named as a salt.
Reported values of IC50 for individual entries

These solved cases illustrate the format of a correct answer.
COc1ccc(C2COCC(C)(C)N2C(=O)NCC2CCCCC2)cc1 (stereo not shown) = < 200 nM
CN(C(=O)NCCCc1ccccc1)C1CN2CCC1CC2 (stereo not shown) = > 1000 nM
O=C(NCCCc1ccc(F)cc1F)N1CCCCC12CCCC2 = < 200 nM
COc1ccc(C2COCC(C)(C)N2C(=O)NCC2CC2)cc1 (stereo not shown) = < 200 nM
CCCCCNC(=O)N1[C@@H](C)COC[C@H]1c1ccc(F)cc1 = 200 to 1000 nM

The molecule identified as CN1CCC(c2ccc3c(c2)CC(C)(C)N(C(=O)NCCc2ccccc2)C3)CC1 registered its IC50 at > 1000 nM

Entry CCCCCNC(=O)N1CCC(N2CCCCC2)C[C@H]1C (stereo partly shown) [Example 96, hydrochloride salt] — recorded IC50 = < 200 nM

Entry CN1CC(c2ccc(F)cc2)N(C(=O)NCCOCC2CC2)C(C)(C)C1 (stereo not shown) [Example 168, hydrochloride] , IC50 reported as < 200 nM

For reference, reported IC50 for CC1(C)CC(F)(F)CCN1C(=O)NCCCC1(C(F)(F)F)CC1 stands at 200 to 1000 nM

The recorded IC50 for entry CCCCCNC(=O)N1C[C@@H](C)N(C2CC2)C[C@@H]1C equals > 1000 nM

IC50 in this record for CCCCCNC(=O)N1CC(c2ccccc2)C(N2CCCCC2)CC1(C)C (stereo not shown) : < 200 nM

The molecule identified as COc1ccc(C2COCC(C)(C)N2C(=O)NCCc2ccc(F)cc2)cc1 (stereo not shown) registered its IC50 at < 200 nM

The recorded IC50 for CCCCCNC(=O)N1C(C)CC(N2CCCCC2)CC1C (stereo not shown) [Example 98, hydrochloride] is < 200 nM

Item: CC1CCC(c2ccccc2)CN1C(=O)NCCCCc1ccccc1 (mixture of isomers) | IC50: < 200 nM

Entry CC1(C)CN(C2CCCCC2)CCN1C(=O)NCCCCc1ccccc1 — recorded IC50 = < 200 nM

Value of IC50 reported for the molecule CC1(C)CC2(CCCCO2)CCN1C(=O)NCCc1ccccc1 (stereo not shown) is 200 to 1000 nM

Item: CC1(C)CC(F)=CCN1C(=O)NCCCC1(C(F)(F)F)CC1 | IC50: > 1000 nM

For reference, reported IC50 for CCOCCNC(=O)N1CCC(c2ccccc2)CC1(C)C (stereo not shown) stands at > 1000 nM

# IC50 (molecule: CCCCCCCNC(=O)N1CCC(N2CCCCC2)CC1(C)C (stereo not shown) ) is > 1000 nM

----------
- experimental-target: acid ceramidase (hACR) (Homo sapiens, UniProt Q13510)
- Construct: expressed in transfected cells; cell lysate used
- Sequence (Q13510 143-395 limits assumed): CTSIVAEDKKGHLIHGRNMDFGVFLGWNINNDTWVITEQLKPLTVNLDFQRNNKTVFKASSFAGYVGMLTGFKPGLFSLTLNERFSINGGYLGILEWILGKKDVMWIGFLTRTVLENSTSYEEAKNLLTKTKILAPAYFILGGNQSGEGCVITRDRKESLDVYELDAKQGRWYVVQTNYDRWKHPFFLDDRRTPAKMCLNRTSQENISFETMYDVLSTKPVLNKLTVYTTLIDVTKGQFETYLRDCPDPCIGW
- Sequence (Q13510 22-142 limits assumed): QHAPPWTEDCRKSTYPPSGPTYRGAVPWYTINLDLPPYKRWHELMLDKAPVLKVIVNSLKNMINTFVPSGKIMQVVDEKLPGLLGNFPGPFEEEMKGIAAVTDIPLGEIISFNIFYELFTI
- measurement-protocol: Acid ceramidase inhibition, biochemical fluorescent assay with cell lysates overexpressing acid ceramidase, substrate Rbm14-12
- conditions: cell lysates overexpressing acid ceramidase; 1 hr preincubation at RT; pH 4.5; substrate Rbm14-12 6.3 μM; read-out: hACR IC50
pIC50: −log10 of the molar value.
// pIC50 lookup, one value per entry

These recorded examples may help you get a feel for the data.
CC1(C)CN(C2CC2)CC(c2ccccc2)N1C(=O)NCCCCc1ccccc1 (centres unmarked) [Example 169] = > 6.70
O=C(NCCCc1ccccc1)N1CCOCC12CCCC2 [Example 60] = < 6.00
CCCCCNC(=O)N1C(C)COCC1(C)C (centres unmarked) [Example 132] = > 6.70

Value of pIC50 reported for the compound CN1CC(c2ccc3c(c2)N(C(=O)NCc2ccccc2)C(C)(C)CC3)C1 [Example 65] is 6.00 to 6.70

GET /value?item= CC1(C)CCc2c(C3COC3)cccc2N1C(=O)NCCc1ccccc1 [Example 51] &field=pIC50 returns 6.00 to 6.70

Record summary for CC(C)CNC(=O)N1C(c2ccc(F)cc2)COCC1(C)C (centres unmarked) [Example 140] : reported pIC50 = > 6.70

Reported pIC50 for CC1(C)CCCCN1C(=O)NCCCCc1ccccc1 [Example 90] was < 6.00

// recorded pIC50 for CC1(C)CC(c2ccccc2)CCN1C(=O)NCCCCc1ccccc1 (centres unmarked) [Example 74] : > 6.70
